tested on: 616215-338-R-J1-PDC spheroid with HUVEC/MSC, viability; assay: Anticancer human tumor 616215-338-R-J1-PDC patient-derived colon adenocarcinoma cell line growth inhibition [TAK]; settings: second compound 0.3 µM; first compound 0.001 µM; active compounds read low;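 also: spheroids exposed to drugs for 7 days before readout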
For each of the compounds below, state its viability, T/C.
Kindly answer with a numeric value in %, unit omitted.

Q) # return viability, T/C for CC(C)CC(NC(=O)CNC(=O)c1cc(Cl)ccc1Cl)B1OC(=O)CC(CC(=O)O)(C(=O)O)O1 (centres undefined) + CC(C)NCC(C(=O)N1CCN(c2ncnc3c2C(C)CC3O)CC1)c1ccc(Cl)cc1 , test system: 616215-338-R-J1-PDC spheroid with HUVEC/MSC, viability;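 also: spheroids exposed to drugs for 7 days before readout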
A) 123

Q) # return viability, T/C for CC(C)n1nc(-c2ccc3oc(N)nc3c2)c2c(N)ncnc21 + CC(C)NCC(C(=O)N1CCN(c2ncnc3c2C(C)CC3O)CC1)c1ccc(Cl)cc1 , test system: 616215-338-R-J1-PDC spheroid with HUVEC/MSC, viability;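 also: spheroids exposed to drugs for 7 days before readout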
A) 99.9

Q) # return viability, T/C for CC(C)CC(NC(=O)C(Cc1ccccc1)NC(=O)c1cnccn1)B(O)O (centres undefined) + CC(C)NCC(C(=O)N1CCN(c2ncnc3c2C(C)CC3O)CC1)c1ccc(Cl)cc1 , test system: 616215-338-R-J1-PDC spheroid with HUVEC/MSC, viability;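 also: spheroids exposed to drugs for 7 days before readout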
A) 95.1

Q) # return viability, T/C for COC1CC2CCC(C)C(O)(O2)C(=O)C(=O)N2CCCCC2C(=O)OC(C(C)CC2CCC(OCCO)C(OC)C2)CC(=O)C(C)C=C(C)C(O)C(OC)C(=O)C(C)CC(C)C=CC=CC=C1C (centres undefined) + CC(C)NCC(C(=O)N1CCN(c2ncnc3c2C(C)CC3O)CC1)c1ccc(Cl)cc1 , test system: 616215-338-R-J1-PDC spheroid with HUVEC/MSC, viability;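 also: spheroids exposed to drugs for 7 days before readout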
A) 119
